biological target: T1, CD3 epsilon homodimer protein (UniProt P07766 23-126); test: SPR Biacore T200, CD3e homodimer on chip, vs unaltered GLS3000 antibody
T1 construct: also called CD3 (CD3 epsilon)
T1 sequence (P07766 23-126): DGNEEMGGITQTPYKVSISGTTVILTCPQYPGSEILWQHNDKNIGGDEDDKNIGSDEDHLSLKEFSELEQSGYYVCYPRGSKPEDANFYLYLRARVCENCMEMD

{"binder": "GLS3000 K50P (antibody, name in Kabat numbering, V domains shown, one-arm IgG as m2) VH: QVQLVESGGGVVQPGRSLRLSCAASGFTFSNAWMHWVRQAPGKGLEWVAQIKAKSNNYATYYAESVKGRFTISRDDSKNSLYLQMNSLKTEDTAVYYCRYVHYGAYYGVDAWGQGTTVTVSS VL: DIVMTQSPLSLPVTPGEPASISCRSSQSLVHSNRNTYLHWYQQKPGQAPRLLIYPVSNRFSGVPDRFSGSGSGTDFTLKISRVEAEDVGVYYCGQGTQVPYTFGQGTKLEIK", "ratio of amounts bound (Z=Y/X)": 0.3}
{"binder": "GLS3000 L27bV (antibody, name in Kabat numbering, V domains shown, one-arm IgG as m2) VH: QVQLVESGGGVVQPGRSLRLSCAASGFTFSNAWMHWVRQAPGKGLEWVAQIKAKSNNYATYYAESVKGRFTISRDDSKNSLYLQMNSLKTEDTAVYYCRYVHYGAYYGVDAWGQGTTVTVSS VL: DIVMTQSPLSLPVTPGEPASISCRSSQSVVHSNRNTYLHWYQQKPGQAPRLLIYKVSNRFSGVPDRFSGSGSGTDFTLKISRVEAEDVGVYYCGQGTQVPYTFGQGTKLEIK", "ratio of amounts bound (Z=Y/X)": 1.12}

Just for reference, patent US20210388087A1 is where these values come from.
